ASSAY METHOD TEXT: Phase 1 study of a single oral dose of voxelotor in subjects with hepatic impairment: whole blood and plasma PK
Format: in vivo, human
CONDITION SET: human, plasma, po, 1500 mg, plasma; normal hepatic function; 1500 mg single oral dose; read-out: t1/2, mean (converted)
PROPERTY NAME: half-life (h)
Give bare numbers, in h.

Ask: Indicate its recorded half-life; the compound in question is CC(C)n1nccc1-c1ncccc1COc1cccc(O)c1C=O
Reply: 80.8

* * *

ASSAY METHOD TEXT: Phase 1 study of a single oral dose of voxelotor in subjects with hepatic impairment: whole blood and plasma PK
Type: in vivo, human
CONDITION SET: human, whole blood, po, 600 mg, whole blood; severe hepatic impairment; 600 mg single oral dose, adjusted for dose to 1500 mg; read-out: Cmax, GM (converted)
PROPERTY NAME: Cmax (µg/mL)
One number for each entry, in µg/mL.

Ask: Indicate its recorded Cmax; the compound in question is CC(C)n1nccc1-c1ncccc1COc1cccc(O)c1C=O
Reply: 86.6

The reported numbers originate from patent US20230015823A1.
